TESTED_TARGET: LPA5 receptor (Homo sapiens (Human))
Sequence (Q9H1C0 whole entry): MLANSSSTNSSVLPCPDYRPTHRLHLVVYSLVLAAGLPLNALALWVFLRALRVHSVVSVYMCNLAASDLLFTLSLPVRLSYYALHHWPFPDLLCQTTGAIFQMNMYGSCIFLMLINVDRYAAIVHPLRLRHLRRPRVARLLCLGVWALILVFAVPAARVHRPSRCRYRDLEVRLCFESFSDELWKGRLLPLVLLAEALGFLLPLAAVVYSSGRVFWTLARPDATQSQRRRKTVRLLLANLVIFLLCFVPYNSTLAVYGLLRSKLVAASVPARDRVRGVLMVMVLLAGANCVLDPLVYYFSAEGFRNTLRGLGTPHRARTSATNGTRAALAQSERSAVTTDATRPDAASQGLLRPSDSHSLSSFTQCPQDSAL
ASSAY_TEXT: In vitro LPA5 receptor assay (LPA-driven intracellular calcium release, FLIPR)
ASSAY_SETUP: RH7777 cells expressing human LPA5 receptors; LPA at EC90
Label Condition met when IC50 is strictly below 9 nM; otherwise label Condition not met.

>  <SMILES_STRING>
O=C(O)c1ccc(CN(CC2CC2)C(=O)c2ccc(Oc3ccccc3Cl)cc2)cc1

>  <TESTED_TARGET>
LPA5 receptor (Homo sapiens (Human))

>  <ASSIGNED_LABEL>
Condition met

$$$$
>  <SMILES_STRING>
O=C(O)c1ccc(CN(CCC(F)(F)F)C(=O)c2ccc(Oc3ccccc3F)cc2)cc1

>  <TESTED_TARGET>
LPA5 receptor (Homo sapiens (Human))

>  <ASSIGNED_LABEL>
Condition not met

$$$$
>  <SMILES_STRING>
Cc1ccccc1Oc1ccc(C(=O)N(Cc2ccc(C(=O)O)cc2)CC2CC2)cc1

>  <TESTED_TARGET>
LPA5 receptor (Homo sapiens (Human))

>  <ASSIGNED_LABEL>
Condition not met

$$$$
>  <SMILES_STRING>
COc1ccc(F)cc1Oc1ccc(C(=O)N(Cc2ccc(C(=O)O)cc2)CC2CC2)cc1

>  <TESTED_TARGET>
LPA5 receptor (Homo sapiens (Human))

>  <ASSIGNED_LABEL>
Condition not met

$$$$
>  <SMILES_STRING>
COc1cccc(CN(Cc2ccc(C(=O)O)cc2)C(=O)c2ccc(Oc3ccccc3F)cc2)c1

>  <TESTED_TARGET>
LPA5 receptor (Homo sapiens (Human))

>  <ASSIGNED_LABEL>
Condition met

$$$$
>  <SMILES_STRING>
COc1ccccc1Oc1ccc(C(=O)N(CCC(F)(F)F)Cc2ccc(C(=O)O)cc2)cc1

>  <TESTED_TARGET>
LPA5 receptor (Homo sapiens (Human))

>  <ASSIGNED_LABEL>
Condition met

$$$$
>  <SMILES_STRING>
COc1ccccc1Oc1ccc(C(=O)N(CCCc2cccc(F)c2)Cc2ccc(C(=O)O)cc2)cc1

>  <TESTED_TARGET>
LPA5 receptor (Homo sapiens (Human))

>  <ASSIGNED_LABEL>
Condition met

$$$$

Values from patent US9464060B2
